Assay: qHTS Assay for Lipid Storage Modulators (AID 1519)
Conditions: Drosophila S3 cells, BODIPY lipid droplet/cell ratio, laser cytometry; measured here: lipid channel max response; cells loaded with oleic acid
Inconclusive results are not listed.
experimentalReadout: max response (%)
API: value field is a number in %; no unit string.

[ask] Output measured max response for this item: CC(=O)OC1CC[C@@]2(C)C3=CC(=O)[C@]4(C)C(CC5OC6(OCC(C)CC6Br)C(C)C54)C3CC[C@H]2C1 (stereo not given in full)
[reply] -20.5

[ask] Output measured max response for this item: COc1cc(-c2cc(=O)c3c(O)c(OC)c(OC)c(OC)c3o2)cc(OC)c1OC
[reply] 8.84

[ask] Output measured max response for this item: Cc1cc2ccc(=O)oc2cc1OC[C@@H](O)C(C)(C)O
[reply] 21.2

[ask] Output measured max response for this item: C[N+]1(C)CC(O)[C@H](C(=O)[O-])C1 (stereo not given in full)
[reply] 0.467

[ask] Output measured max response for this item: CC(=O)OC1C=C[C@]2(C)C(CC(OC(C)=O)[C@@]3(C)C4=CC(=O)OC(c5ccoc5)[C@]4(C)CCC23)C1(C)C (stereo not given in full)
[reply] 1.1
